System: Aspergillus flavus
Test: Antifungal activity against Aspergillus flavus MTCC 3008 assessed as zone of inhibition at 25 to 150 ug/ml measured after 24 to 48 hrs by agar well diffusion method
Type: functional
property: inhibition zone (IZ) (mm)

INSERT INTO measurements (compoundstring, property, recordedmeasurement) VALUES
  ('Cc1nn(-c2ccccc2)c(Cl)c1-c1cc(-c2cc(Cl)cc(Cl)c2O)nc2c(/N=N/c3ccc(Cl)cc3)c(N)nn12', 'inhibition zone (IZ)', 21),
  ('Cc1cc(O)c(-c2cc(-c3c(C)nn(-c4ccccc4)c3Cl)n3nc(N)c(/N=N/c4ccc(Cl)cc4)c3n2)cc1Cl', 'inhibition zone (IZ)', 10),
  ('Cc1nn(-c2ccccc2)c(Cl)c1-c1cc(-c2cc(Cl)cc(I)c2O)nc2c(/N=N/c3ccc(Cl)cc3)c(N)nn12', 'inhibition zone (IZ)', 21),
  ('Cc1ccc(-c2cc(-c3c(C)nn(-c4ccccc4)c3Cl)n3nc(N)c(/N=N/c4ccc(Cl)cc4)c3n2)c(O)c1Br', 'inhibition zone (IZ)', 17);
